- STUDY SYSTEM: Putative citrate synthase 2 (Mycobacterium tuberculosis) (UniProt P9WPD3)
- Sequence (whole entry): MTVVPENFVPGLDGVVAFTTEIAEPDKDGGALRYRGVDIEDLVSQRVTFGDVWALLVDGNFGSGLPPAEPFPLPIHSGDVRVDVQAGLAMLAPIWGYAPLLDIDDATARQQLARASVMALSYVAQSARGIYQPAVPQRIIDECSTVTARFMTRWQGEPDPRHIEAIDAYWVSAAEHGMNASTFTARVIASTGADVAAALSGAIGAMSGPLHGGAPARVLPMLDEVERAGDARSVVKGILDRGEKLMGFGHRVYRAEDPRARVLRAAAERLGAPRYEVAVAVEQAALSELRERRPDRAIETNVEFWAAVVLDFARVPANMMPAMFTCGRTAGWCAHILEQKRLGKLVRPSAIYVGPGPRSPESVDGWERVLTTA
- METHOD DESCRIPTION: Binding affinity to Mycobacterium tuberculosis wild type CitA expressed in Escherichia coli cells assessed as change in melting temperature by thermal shift assay
ENDPOINT LABEL: ΔTm (°C)
One number for each entry, in °C.

CC(=O)C(=O)O 2.31
CC(=O)CC(=O)O 0.19
O=CC(=O)O 0.1
O=C(O)CO 0.15

With those in mind, consider the next compound.
Ask: # lookup: ΔTm of O=C(O)CC(=O)C(=O)O
Reply: 11.2
